conditions: human gut metagenome, 24 h, 2 µM; note: call rule not given here
property.name: Bacterial Biotransformation

# compound, assay.result
data = [
    ("CC(C)N(CCC(C(N)=O)(c1ccccc1)c1ccccn1)C(C)C.O=P(O)(O)O (centres undefined) [DISOPYRAMIDE PHOSPHATE]", "Compound metabolized"),
    ("COc1ccc(CCN(C)CCCC(C#N)(c2ccc(OC)c(OC)c2)C(C)C)cc1OC (centres undefined)", "Compound metabolized"),
    ("CCCCCOC(=O)Nc1nc(=O)n([C@@H]2O[C@H](C)[C@@H](O)[C@H]2O)cc1F [CAPECITABINE]", "Compound metabolized"),
]

* * *

conditions: human gut metagenome, 24 h, 2 µM

# molecule, Bacterial Biotransformation
measured = [
    ("COc1ccccc1N1CCN(CC(O)COc2cccc3ccccc23)CC1 (centres undefined)", "Compound NOT metabolized"),
    ("Cc1nc(-c2ccc(OCC(C)C)c(C#N)c2)sc1C(=O)O", "Compound metabolized"),
    ("CCOC(=O)[C@H](CCc1ccccc1)N[C@@H](C)C(=O)N1[C@H](C(=O)O)C[C@H]2CCCC[C@@H]21", "Compound metabolized"),
    ("CC(C)(Oc1ccc(CCNC(=O)c2ccc(Cl)cc2)cc1)C(=O)O [BEZAFIBRATE]", "Compound metabolized"),
    ("CO[C@]12C[C@@H](COC(=O)c3cncc(Br)c3)CN(C)[C@@H]1Cc1cn(C)c3cccc2c13", "Compound NOT metabolized"),
    ("CNC(=C[N+](=O)[O-])NCCSCc1csc(CN(C)C)n1", "Compound metabolized"),
    ("O=C(Nc1ccccc1)OCC(CN1CCCCC1)OC(=O)Nc1ccccc1 (centres undefined)", "Compound NOT metabolized"),
    ("CN1CC(=O)N2[C@H](c3ccc4c(c3)OCO4)c3[nH]c4ccccc4c3C[C@@H]2C1=O", "Compound NOT metabolized"),
    ("CCCC1O[C@@H]2C[C@H]3[C@@H]4CCC5=CC(=O)C=C[C@]5(C)[C@H]4[C@@H](O)C[C@]3(C)[C@]2(C(=O)CO)O1 (some centres undefined) [BUDESONIDE]", "Compound metabolized"),
    ("CN(C)CCC=C1c2ccccc2C=Cc2ccccc21", "Compound NOT metabolized"),
    ("COc1ccc(CCN(C)CCCC(C#N)(c2ccc(OC)c(OC)c2)C(C)C)cc1OC (centres undefined)", "Compound metabolized"),
    ("CN1CCc2c(c3ccccc3n2Cc2ccccc2)C1.CN1CCc2c(c3ccccc3n2Cc2ccccc2)C1.O=S(=O)(O)c1cccc2c(S(=O)(=O)O)cccc12", "Compound NOT metabolized"),
    ("CN1C(C(=O)Nc2ccccn2)=C(O)c2sccc2S1(=O)=O", "Compound NOT metabolized"),
    ("NC(=O)N1c2ccccc2CC(=O)c2ccccc21 [OXCARBAZEPINE]", "Compound NOT metabolized"),
    ("COC1=CC(=O)C[C@@H](C)[C@]12Oc1c(Cl)c(OC)cc(OC)c1C2=O", "Compound metabolized"),
    ("Cc1nc2n(c(=O)c1CCN1CCC(c3noc4cc(F)ccc34)CC1)CCCC2O (centres undefined)", "Compound metabolized"),
    ("NC12CC3CC(CC(C3)C1)C2", "Compound NOT metabolized"),
    ("CN1CCOC(c2ccccc2)c2ccccc2C1 (centres undefined)", "Compound NOT metabolized"),
    ("CCOc1ccc(NC(C)=O)cc1", "Compound NOT metabolized"),
    ("O=c1[nH]c2ccccc2n1C1CCN(CCCC(c2ccc(F)cc2)c2ccc(F)cc2)CC1 [PIMOZIDE]", "Compound metabolized"),
    ("Cc1ccnc2c1NC(=O)c1cccnc1N2C1CC1", "Compound NOT metabolized"),
    ("OCCOCCN1CCN(C2=Nc3ccccc3Sc3ccccc32)CC1", "Compound NOT metabolized"),
    ("COCCc1ccc(OCC(O)CNC(C)C)cc1.COCCc1ccc(OCC(O)CNC(C)C)cc1.O=C(O)C(O)C(O)C(=O)O (centres undefined) [METOPROLOL TARTRATE]", "Compound NOT metabolized"),
    ("COC(=O)[C@H]1[C@H]2C[C@@H]3c4[nH]c5cc(OC)ccc5c4CCN3C[C@H]2C[C@@H](OC(=O)c2cc(OC)c(OC)c(OC)c2)[C@@H]1OC", "Compound NOT metabolized"),
    ("CN(C)C(=O)C(CCN1CCC(O)(c2ccc(Cl)cc2)CC1)(c1ccccc1)c1ccccc1 [LOPERAMIDE]", "Compound metabolized"),
    ("OC(CCN1CCCCC1)(c1ccccc1)C1CCCCC1 (centres undefined)", "Compound metabolized"),
    ("NC(CO)(CO)CO.O=C(c1ccccc1)c1ccc2n1CCC2C(=O)O (centres undefined)", "Compound metabolized"),
    ("CC(=O)O[C@]1(C(C)=O)CC[C@H]2[C@@H]3C=C(Cl)C4=CC(=O)[C@@H]5C[C@@H]5[C@]4(C)[C@H]3CC[C@@]21C [CYPROTERONE ACETATE]", "Compound metabolized"),
    ("Br.CN(C)CCCC1(c2ccc(F)cc2)OCc2cc(C#N)ccc21 (centres undefined) [CITALOPRAM HYDROBROMIDE]", "Compound NOT metabolized"),
    ("CCCCC1=NC2(CCCC2)C(=O)N1Cc1ccc(-c2ccccc2-c2nnn[nH]2)cc1", "Compound metabolized"),
    ("COc1ccc2[nH]c([S+]([O-])Cc3ncc(C)c(OC)c3C)nc2c1 (centres undefined)", "Compound metabolized"),
    ("CC(C)NCC(O)COc1ccc(CCOCC2CC2)cc1 (centres undefined)", "Compound NOT metabolized"),
    ("COc1ccccc1OCC(O)CN1CCN(CC(=O)Nc2c(C)cccc2C)CC1 (centres undefined)", "Compound NOT metabolized"),
    ("OC(CCN1CCCCC1)(c1ccccc1)C1CC2C=CC1C2 (centres undefined)", "Compound metabolized"),
]
